- target: T1, human LTBP3-proTGFβ1 complex (human, UniProt Q9NS15 866-1039)
- T1 construct: range 866-1039; also called hLTBP3-proTGFβ1; hLTBP3
- T1 sequence (Q9NS15 866-1039 limits assumed, chain 1 of 2): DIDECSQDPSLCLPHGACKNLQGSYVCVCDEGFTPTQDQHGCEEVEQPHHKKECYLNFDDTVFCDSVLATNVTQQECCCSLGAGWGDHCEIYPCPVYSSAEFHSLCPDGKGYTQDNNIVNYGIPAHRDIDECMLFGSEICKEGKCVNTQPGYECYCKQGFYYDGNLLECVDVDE
- T1 sequence (chain, as listed by the source limits assumed, chain 2 of 2): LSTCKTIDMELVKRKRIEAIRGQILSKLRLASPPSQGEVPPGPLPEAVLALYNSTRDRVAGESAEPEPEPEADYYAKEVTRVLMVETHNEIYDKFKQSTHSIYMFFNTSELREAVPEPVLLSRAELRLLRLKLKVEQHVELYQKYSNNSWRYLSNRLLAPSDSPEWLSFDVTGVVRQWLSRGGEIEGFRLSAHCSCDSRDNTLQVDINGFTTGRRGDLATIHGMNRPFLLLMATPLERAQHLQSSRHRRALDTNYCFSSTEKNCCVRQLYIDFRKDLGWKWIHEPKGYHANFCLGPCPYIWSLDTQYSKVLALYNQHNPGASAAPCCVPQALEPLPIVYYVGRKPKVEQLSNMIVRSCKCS
- assay procedure: BLI (Octet)
pKd listing for selected binders.
// pKd here means minus log10 of the molar concentration (mol/L)

binder	parameter measured	numeric result
Ab26 (antibody, IgG4, V domains shown) VH: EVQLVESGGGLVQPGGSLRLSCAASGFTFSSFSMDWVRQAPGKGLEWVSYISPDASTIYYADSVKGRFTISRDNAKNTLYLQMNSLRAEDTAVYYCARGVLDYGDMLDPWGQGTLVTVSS VL: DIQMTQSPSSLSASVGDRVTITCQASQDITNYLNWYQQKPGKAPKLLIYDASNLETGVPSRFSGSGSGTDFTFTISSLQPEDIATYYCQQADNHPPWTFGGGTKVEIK	pKd	9.76
Ab13 (antibody, V domains shown) VH: EVQLLESGGGLVQPGGSLRLSCAASGFTFADYAMTWVRQAPGKGLEWVSAISSFASAIYYADSVKGRFTISRDNSKNTLYLQMNSLRAEDTAVYYCARVSSGHWDFDYWGQGTLVTVSS VL: DIQMTQSPSSLSASVGDRVTITCRASQSISSYLNWYQQKPGKAPKLLIYAASSLQSGVPSRFSGSGSGTDFTLTISSLQPEDFATYYCQQVYDPPLTFGGGTKVEIK	pKd	9.60
Ab24 (antibody, IgG4, V domains shown) VH: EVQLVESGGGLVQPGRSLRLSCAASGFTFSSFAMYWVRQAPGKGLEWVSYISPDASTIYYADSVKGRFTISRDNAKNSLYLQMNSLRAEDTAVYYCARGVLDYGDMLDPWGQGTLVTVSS VL: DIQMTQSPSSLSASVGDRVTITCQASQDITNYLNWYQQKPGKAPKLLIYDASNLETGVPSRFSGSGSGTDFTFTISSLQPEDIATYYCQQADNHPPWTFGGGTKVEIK	pKd	9.70

Q. Indicate the recorded pKd value for this binder: Ab6 (antibody, human IgG4 S228P, kappa, V domains shown) VH: EVQLVESGGGLVQPGGSLRLSCTASGFTFSSFSMDWVRQAPGKGLEWVSYISPSADTIYYADSVKGRFTISRDNAKNTLYLQMNSLRAEDTAVYYCARGVLDYGDMLMPWGQGTLVTVSS VL: DIQMTQSPSSLSASVGDRVTITCQASQDITNYLNWYQQKPGKAPKLLIYDASNLETGVPSRFSGSGSGTDFTFTISSLQPEDIATYYCQQADNHPPWTFGGGTKVEIKR
A. 9.91

Q. State its pKd: Ab30 (antibody, IgG4, V domains shown) VH: EVQLVESGGGLVQPGGSLRLSCAASGFTFSSFSMDWVRQAPGKGLEWVSYISPDASTIYYADSVKGRFTISRDNAKNSLYLQMNSLRAEDTAVYYCARGTLDYGDMLDPWGQGTLVTVSS VL: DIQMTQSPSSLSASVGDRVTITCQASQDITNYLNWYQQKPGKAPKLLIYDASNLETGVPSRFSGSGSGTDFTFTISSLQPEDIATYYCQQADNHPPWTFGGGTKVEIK
A. 9.58
